# MEASUREMENT_TARGET: T1, GST_HS6ST2_C2 (human, UniProt Q96MM7 525-605)
# T1 construct: Expressed in E. coli BL21 (DE3); whole cell lysate blotted after SDS-PAGE; also called GST fusion of amino acids 379-459 of HS6ST2_N-short; not shown: N-terminal glutathione S-transferase (GST) of vector pGEX-6P-1, with the vector's linker
# T1 sequence: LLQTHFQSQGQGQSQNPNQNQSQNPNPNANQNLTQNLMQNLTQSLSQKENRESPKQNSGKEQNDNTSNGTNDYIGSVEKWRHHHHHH
# PROTOCOL_DETAILS: Western blot of E. coli whole cell lysate, antibody 10 µg/mL
MEASUREMENT_NAME: binding result

anti-HS6ST2 antibody A10 (antibody, mouse IgG1, V domains shown, also called clone A10) VH: EVQLQQSGAELVKPGASVKLSCTASGFNIKDTYMHWVKQRPEQGLEWIGRIDPANGNTKFDPKFQGKASITADTSSNTAYLQLSSLTSEDTAVYYCATNLLRAMDYWGQGTSVTVSS VL: DIVMSQSPSSLTVSVGEKVTMSCKSSQSLLYSSNQKNYLAWCQQIPGQSPKLLIYWASTRESGVPDRFAGSGSGTDFTLTISSVKAEDLAVYYCLQYFTYPFTFGSGTKLEIK :: binds
anti-HS6ST2 antibody B5 (antibody, mouse IgG1, V domains shown, also called clone B5; B5-biotin) VH: EVKLVESGGGLVKSGGSLKLSCVVSGFTFSRYAMSWVRQTPEKRLEWVASIVSGDKTYYPDSVKGRFTISRDNARNILYLQMSSLRSEDTAMYYCTRELGYFDVWGAGTTVTVSS VL: DVVMTQTPLSLPVSLGDQASISCRSSQSLVHSNGNTYLHWYLQKPGQSPKLLIYKVSNRFSGVPDRFSGSGSGTDFTLKISRVEAEDLGVYFCSQSIHVPPLTFGAGTKLELK :: binds
anti-HS6ST2 antibody C8 (antibody, mouse IgG1, V domains shown, also called clone C8; C8-biotin) VH: EVQLQQSGAELVRSGASVKLSCTASGFNIKDYYMHWVKQRPEQGLEWIGWIDPDNDDTEYAPKFQGKATMTADTSSNTAYLQLSSLTSEDTAVYYCNAGNGNYWFAYWGQGTLVTVSA VL: DVVMTQTPLSLPVSLGDQASISCRSSQSLVHSNGNTYLHWNLQKPGQSPKLLIYKVSNRFSGVPDRFSGSGSGTDFTLKISRVEAEDLGVYFCSQTTLVPYTFGGGTKLEIK :: binds
